Assay comment: Plasma psilocin pharmacokinetics during and after one-hour intravenous infusion of psilocin or psilocybin
Condition context: male, Sprague Dawley, rat, plasma, iv, 10 mg/kg, Plasma concentration of psilocin, individual rats; 10 mg/kg psilocin one-hour IV infusion; sampling time 4 h
Recorded metric: concentration at 4 h (ng/mL)
Give bare numbers, in ng/mL.

I am curious: what concentration at 4 h value has been reported for CN(C)CCc1c[nH]c2cccc(O)c12 [psilocin, 4-hydroxy-N,N-dimethyltryptamine] ? 164

----------
Assay comment: Plasma psilocin pharmacokinetics during and after one-hour intravenous infusion of psilocin or psilocybin
Condition context: male, Sprague Dawley, rat, plasma, iv, 10 mg/kg, Plasma concentration of psilocin, mean of 3 rats; 10 mg/kg psilocin one-hour IV infusion; sampling time 6 h
Recorded metric: concentration at 6 h (ng/mL)
Numbers only, in ng/mL.

I am curious: what concentration at 6 h value has been reported for CN(C)CCc1c[nH]c2cccc(O)c12 [psilocin, 4-hydroxy-N,N-dimethyltryptamine] ? 62.5
